Please provide measured shrunken log2 fold change for the entries that follow.
system: Escherichia coli TOP10; experiment: shrunken log2 fold change of peptide-encoding DNA abundance (4.5 h post-induction vs induction); higher = less antimicrobial activity (less host growth inhibition); details: time post-induction: 4.5 h; library: site-saturation at positions 5, 18, 19, 20;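 further: peptides expressed intracellularly from a pBAD plasmid library in pooled LB shake-flask culture, induced with 0.3% L-arabinose, DNA abundance read by NGS, three biological replicates, DESeq2 with apeglm shrinkage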

entry_sequence=RRIRTRPPRLPRPRPRPRFIPRP result=-0.806

List shrunken log2 fold change for every entry below, keeping the order given.
1. RRIRCRPPRLPRPRPRPRKKPRP
2. RRIRPRPPRLPRPRPRPHCWPRP
3. RRIRWRPPRLPRPRPRPKTCPRP
4. RRIRDRPPRLPRPRPRPLYCPRP
5. RRIRYRPPRLPRPRPRPRCQPRP
6. RRIRYRPPRLPRPRPRPNFNPRP

A.
[-0.125, 0.151, 0.174, -0.333, -0.259, -0.818]
